Values from patent US20250276075A1

Tested System: T1, Axl (Homo sapiens, UniProt P30530)
T1 sequence (P30530 26-451 limits assumed): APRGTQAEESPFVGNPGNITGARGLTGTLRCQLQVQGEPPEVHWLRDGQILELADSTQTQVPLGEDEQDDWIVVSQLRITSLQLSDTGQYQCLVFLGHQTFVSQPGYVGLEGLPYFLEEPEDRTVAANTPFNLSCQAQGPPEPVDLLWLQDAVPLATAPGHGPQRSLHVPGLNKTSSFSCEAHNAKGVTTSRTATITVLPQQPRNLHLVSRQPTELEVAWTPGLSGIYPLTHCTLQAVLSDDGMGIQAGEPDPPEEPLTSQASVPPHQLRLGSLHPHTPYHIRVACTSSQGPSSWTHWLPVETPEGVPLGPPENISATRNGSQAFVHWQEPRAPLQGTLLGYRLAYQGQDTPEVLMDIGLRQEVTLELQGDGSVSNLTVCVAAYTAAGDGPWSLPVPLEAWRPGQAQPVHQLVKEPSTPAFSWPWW
Test Details: Affinity ELISA of CPE mutant antibodies for binding to Axl at pH 6.0 over pH 7.4
Assay Setup: light chain variable region mutants; 1:9 dilution
Overview of reported Affinity ELISA CPE mutant ratio (1:9, pH 6.0/7.4) across a group of molecules:
Respond with the number and no other words.

Example molecules with recorded Affinity ELISA CPE mutant ratio (1:9, pH 6.0/7.4):
LC-H091Q (antibody, V domains shown) VH: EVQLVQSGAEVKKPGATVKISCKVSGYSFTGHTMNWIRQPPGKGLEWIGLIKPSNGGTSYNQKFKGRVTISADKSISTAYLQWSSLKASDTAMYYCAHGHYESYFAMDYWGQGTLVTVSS VL: DIQMTQSPSSLSASVGDRVTITCKASQDVSSAVAWYQQKPGQAPRLLIYWASTRHTGVPSRFSGSGSGTEFTLTISSLQPDDFATYYCQEQFSTPLTFGQGTKVEIK ... 2.010
LC-A032M (antibody, V domains shown) VH: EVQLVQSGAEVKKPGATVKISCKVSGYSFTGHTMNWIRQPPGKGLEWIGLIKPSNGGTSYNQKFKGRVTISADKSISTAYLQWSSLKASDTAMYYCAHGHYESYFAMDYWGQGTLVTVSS VL: DIQMTQSPSSLSASVGDRVTITCKASQDVSSMVAWYQQKPGQAPRLLIYWASTRHTGVPSRFSGSGSGTEFTLTISSLQPDDFATYYCQEHFSTPLTFGQGTKVEIK ... 2.920
LC-H091F (antibody, V domains shown) VH: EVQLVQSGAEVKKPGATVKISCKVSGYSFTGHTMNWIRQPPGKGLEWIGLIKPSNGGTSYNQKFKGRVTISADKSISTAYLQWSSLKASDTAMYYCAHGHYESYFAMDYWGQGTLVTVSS VL: DIQMTQSPSSLSASVGDRVTITCKASQDVSSAVAWYQQKPGQAPRLLIYWASTRHTGVPSRFSGSGSGTEFTLTISSLQPDDFATYYCQEFFSTPLTFGQGTKVEIK ... 2.116
LC-P095S (antibody, V domains shown) VH: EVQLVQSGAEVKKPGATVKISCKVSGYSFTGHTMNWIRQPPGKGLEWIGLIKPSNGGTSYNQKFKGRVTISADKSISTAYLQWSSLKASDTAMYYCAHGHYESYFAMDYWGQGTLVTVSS VL: DIQMTQSPSSLSASVGDRVTITCKASQDVSSAVAWYQQKPGQAPRLLIYWASTRHTGVPSRFSGSGSGTEFTLTISSLQPDDFATYYCQEHFSTSLTFGQGTKVEIK ... 3.512
LC-A051N (antibody, V domains shown) VH: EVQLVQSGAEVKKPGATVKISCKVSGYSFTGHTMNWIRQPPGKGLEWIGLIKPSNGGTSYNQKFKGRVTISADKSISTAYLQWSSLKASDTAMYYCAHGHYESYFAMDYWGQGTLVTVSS VL: DIQMTQSPSSLSASVGDRVTITCKASQDVSSAVAWYQQKPGQAPRLLIYWNSTRHTGVPSRFSGSGSGTEFTLTISSLQPDDFATYYCQEHFSTPLTFGQGTKVEIK ... 2.200

Lab book: Affinity ELISA CPE mutant ratio (1:9, pH 6.0/7.4) of LC-A034D (antibody, V domains shown) VH: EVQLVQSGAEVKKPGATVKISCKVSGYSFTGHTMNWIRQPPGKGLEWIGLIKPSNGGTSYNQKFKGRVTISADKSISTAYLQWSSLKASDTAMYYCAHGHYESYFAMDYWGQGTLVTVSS VL: DIQMTQSPSSLSASVGDRVTITCKASQDVSSAVDWYQQKPGQAPRLLIYWASTRHTGVPSRFSGSGSGTEFTLTISSLQPDDFATYYCQEHFSTPLTFGQGTKVEIK noted as 2.599

LC-H091S (antibody, V domains shown) VH: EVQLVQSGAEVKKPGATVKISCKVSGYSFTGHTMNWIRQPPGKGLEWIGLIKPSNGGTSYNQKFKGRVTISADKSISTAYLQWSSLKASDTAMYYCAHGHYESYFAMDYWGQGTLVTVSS VL: DIQMTQSPSSLSASVGDRVTITCKASQDVSSAVAWYQQKPGQAPRLLIYWASTRHTGVPSRFSGSGSGTEFTLTISSLQPDDFATYYCQESFSTPLTFGQGTKVEIK has a reported Affinity ELISA CPE mutant ratio (1:9, pH 6.0/7.4) of 1.336

The molecule listed as LC-P095D (antibody, V domains shown) VH: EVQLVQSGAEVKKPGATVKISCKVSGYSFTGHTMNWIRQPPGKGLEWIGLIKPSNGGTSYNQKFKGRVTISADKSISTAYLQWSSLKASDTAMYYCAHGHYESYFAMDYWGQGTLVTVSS VL: DIQMTQSPSSLSASVGDRVTITCKASQDVSSAVAWYQQKPGQAPRLLIYWASTRHTGVPSRFSGSGSGTEFTLTISSLQPDDFATYYCQEHFSTDLTFGQGTKVEIK shows Affinity ELISA CPE mutant ratio (1:9, pH 6.0/7.4) equal to 2.889

Summary for this molecule, LC-P095W (antibody, V domains shown) VH: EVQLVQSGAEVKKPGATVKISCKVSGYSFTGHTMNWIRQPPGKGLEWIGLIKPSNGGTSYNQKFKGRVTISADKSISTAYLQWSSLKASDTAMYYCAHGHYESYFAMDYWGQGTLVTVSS VL: DIQMTQSPSSLSASVGDRVTITCKASQDVSSAVAWYQQKPGQAPRLLIYWASTRHTGVPSRFSGSGSGTEFTLTISSLQPDDFATYYCQEHFSTWLTFGQGTKVEIK : Affinity ELISA CPE mutant ratio (1:9, pH 6.0/7.4) is 2.263
